Would you mind telling me the reported GI50 of each entry?
tested on: HCC-2998; assay: NCI 60 cell line five dose, Colon Cancer
Answers are plain numbers, in µM.

These recorded examples may help you get a feel for the data.
In: For C=C1C(=O)O[C@H]2[C@H]1CC/C(COC(=O)NCCCCNC(=O)OC/C1=C/CC[C@@]3(C)O[C@H]3[C@H]3OC(=O)C(=C)[C@@H]3CC1)=C\CC[C@@]1(C)O[C@@H]21 , what is its reported GI50?
Out: 2.35

In: // same read-out, input: C=C1C(=O)O[C@H]2[C@H]1CC/C(COC(=O)NCCCCCNC(=O)OC/C1=C/CC[C@@]3(C)O[C@H]3[C@H]3OC(=O)C(=C)[C@@H]3CC1)=C\CC[C@@]1(C)O[C@@H]21
Out: 6.71

In: // same read-out, input: C=C1C(=O)O[C@H]2[C@H]1CC/C(COC(=O)CCC(=O)NCCCCCCCCCNC(=O)CCC(=O)OC/C1=C/CC[C@@]3(C)O[C@H]3[C@H]3OC(=O)C(=C)[C@@H]3CC1)=C\CC[C@@]1(C)O[C@@H]21
Out: 2.25

Attention now turns to another entry.
In: For C=C1C(=O)O[C@H]2[C@H]1CC/C(COC(=O)CCC(=O)NCCCCCCCCNC(=O)CCC(=O)OC/C1=C/CC[C@@]3(C)O[C@H]3[C@H]3OC(=O)C(=C)[C@@H]3CC1)=C\CC[C@@]1(C)O[C@@H]21 , what is its reported GI50?
Out: 4.12

###

system: IGROV1; test: NCI 60 cell line five dose, Ovarian Cancer; assay type: cell-based, human; conditions: read-out: LC50 (the source's name)
readout.kind: CC50 (µM)
One number for each entry, in µM.

In: For C=C1C(=O)O[C@H]2[C@H]1CC/C(COC(=O)NCCCCNC(=O)OC/C1=C/CC[C@@]3(C)O[C@H]3[C@H]3OC(=O)C(=C)[C@@H]3CC1)=C\CC[C@@]1(C)O[C@@H]21 , what is its reported CC50?
Out: 48.6

###

Quick record of CC50 values for HCC-2998.
Give bare numbers, in µM.

In: Which measured CC50 belongs to C=C1C(=O)O[C@H]2[C@H]1CC/C(COC(=O)CCC(=O)NCCCCCCCCNC(=O)CCC(=O)OC/C1=C/CC[C@@]3(C)O[C@H]3[C@H]3OC(=O)C(=C)[C@@H]3CC1)=C\CC[C@@]1(C)O[C@@H]21 , tested on HCC-2998?
Out: 63.6

Attention now turns to another entry.
In: Which measured CC50 belongs to C=C1C(=O)O[C@H]2[C@H]1CC/C(COC(=O)CCC(=O)NCCCCCCCCCNC(=O)CCC(=O)OC/C1=C/CC[C@@]3(C)O[C@H]3[C@H]3OC(=O)C(=C)[C@@H]3CC1)=C\CC[C@@]1(C)O[C@@H]21 , tested on HCC-2998?
Out: 9.82

###

Quick record of CC50 values for 786-0.
One number for each entry, in µM.

In: For C=C1C(=O)O[C@H]2[C@H]1CC/C(COC(=O)CCC(=O)NCCCCCCCCNC(=O)CCC(=O)OC/C1=C/CC[C@@]3(C)O[C@H]3[C@H]3OC(=O)C(=C)[C@@H]3CC1)=C\CC[C@@]1(C)O[C@@H]21 [JVM 2-87] , what is its reported CC50?
Out: 6.67

***
In: For C=C1C(=O)O[C@H]2[C@H]1CC/C(COC(=O)CCC(=O)NCCCCCCCCCNC(=O)CCC(=O)OC/C1=C/CC[C@@]3(C)O[C@H]3[C@H]3OC(=O)C(=C)[C@@H]3CC1)=C\CC[C@@]1(C)O[C@@H]21 [JVM 2-92] , what is its reported CC50?
Out: 6.04

Source: patent US10118935B2
